Test system: viable cells in culture
Experiment: Cell viability assay at 10 μM (CellTiter-Glo, Table VII);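 also: graded A 0-20%; B 21-40%; C 41-60%; D over 60% viable cells relative to DMSO control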
Assay type: cell-based
Conditions: RKO; compound 10 μM; 72 h; read-out: percentage (%) of viable cells RKO

>  <Compound>
COc1cc2c(Oc3ccc(NS(=O)(=O)c4cc(F)ccc4F)cc3F)ccnc2cc1OCCCN1CCCCC1 [Example 1]

>  <Tested On>
viable cells in culture

>  <viability at 10 µM>
0 to 20%

$$$$
>  <Compound>
COc1cc2c(Oc3ccc(NS(=O)(=O)c4cc(Cl)cc(Cl)c4OC)cc3F)ccnc2cc1OCCCN1CCN(C)CC1 [Example 35]

>  <Tested On>
viable cells in culture

>  <viability at 10 µM>
41 to 60%

$$$$
>  <Compound>
COc1cc2c(Oc3ccc(NS(=O)(=O)c4cccc(-c5ccccc5)c4)cc3F)ccnc2cc1OCCCN1CCCCC1 [Example 8]

>  <Tested On>
viable cells in culture

>  <viability at 10 µM>
21 to 40%

$$$$
>  <Compound>
COc1cc2c(Oc3ccc(NS(=O)(=O)c4ccc(Cl)cc4F)cc3F)ccnc2cc1OCCCN1CCCCC1 [Example 3]

>  <Tested On>
viable cells in culture

>  <viability at 10 µM>
0 to 20%

$$$$

* * *

Tested on: Hs578T
Test: Matrigel outgrowth assay/branching assay
Format: cell-based
Conditions: Homo sapiens, Hs-578T; HS578T cell line; Table Ib; read-out: Total branching inhibition in Matrigel HS578T

>  <Molecule>
COc1cc2c(Oc3ccc(NS(=O)(=O)c4ccc(F)c(F)c4F)cc3F)ccnc2cc1OCCCN1CCCC(C)C1 (stereo not shown)

>  <IC50>
10 to 25 µM

$$$$
>  <Molecule>
COc1cc2c(Oc3cccc(NS(=O)(=O)/C=C/c4ccccc4)c3)ccnc2cc1OCCCN1CCN(C)CC1

>  <IC50>
≤ 10 µM

$$$$
>  <Molecule>
COc1cc2c(Oc3ccc(NS(=O)(=O)c4cc(Cl)ccc4Cl)cc3Cl)ccnc2cc1OCCCN1CCN(C)CC1

>  <IC50>
≤ 10 µM

$$$$
>  <Molecule>
COc1cc2c(Oc3ccc(NS(=O)(=O)c4ccccc4Cl)cc3F)ccnc2cc1OCCCN1CCCC(C)C1 (stereo not shown)

>  <IC50>
≤ 10 µM

$$$$
>  <Molecule>
COc1cc2c(Oc3ccc(NS(=O)(=O)c4ccc(F)c(C#N)c4)cc3F)ccnc2cc1OCCCN1CCCC(C)C1 (stereo not shown)

>  <IC50>
≤ 10 µM

$$$$
>  <Molecule>
COc1cc2c(Oc3cccc(NS(=O)(=O)c4c(Cl)cccc4Cl)c3)ccnc2cc1OCCCN1CCN(C)CC1

>  <IC50>
≤ 10 µM

$$$$
>  <Molecule>
COc1cc2c(Oc3cc(NS(=O)(=O)c4ccccc4OC(F)(F)F)ccc3F)ccnc2cc1OCCCN1CCC(C)CC1

>  <IC50>
10 to 25 µM

$$$$

* * *

Molecular target: wild type AXL (wtAXL) receptor tyrosine kinase (Homo sapiens)
Construct: WtAXL cDNA was cloned into vector pLXSN(ESK) and transfected into Phoenix E packaging cells
Sequence (P30530 26-894): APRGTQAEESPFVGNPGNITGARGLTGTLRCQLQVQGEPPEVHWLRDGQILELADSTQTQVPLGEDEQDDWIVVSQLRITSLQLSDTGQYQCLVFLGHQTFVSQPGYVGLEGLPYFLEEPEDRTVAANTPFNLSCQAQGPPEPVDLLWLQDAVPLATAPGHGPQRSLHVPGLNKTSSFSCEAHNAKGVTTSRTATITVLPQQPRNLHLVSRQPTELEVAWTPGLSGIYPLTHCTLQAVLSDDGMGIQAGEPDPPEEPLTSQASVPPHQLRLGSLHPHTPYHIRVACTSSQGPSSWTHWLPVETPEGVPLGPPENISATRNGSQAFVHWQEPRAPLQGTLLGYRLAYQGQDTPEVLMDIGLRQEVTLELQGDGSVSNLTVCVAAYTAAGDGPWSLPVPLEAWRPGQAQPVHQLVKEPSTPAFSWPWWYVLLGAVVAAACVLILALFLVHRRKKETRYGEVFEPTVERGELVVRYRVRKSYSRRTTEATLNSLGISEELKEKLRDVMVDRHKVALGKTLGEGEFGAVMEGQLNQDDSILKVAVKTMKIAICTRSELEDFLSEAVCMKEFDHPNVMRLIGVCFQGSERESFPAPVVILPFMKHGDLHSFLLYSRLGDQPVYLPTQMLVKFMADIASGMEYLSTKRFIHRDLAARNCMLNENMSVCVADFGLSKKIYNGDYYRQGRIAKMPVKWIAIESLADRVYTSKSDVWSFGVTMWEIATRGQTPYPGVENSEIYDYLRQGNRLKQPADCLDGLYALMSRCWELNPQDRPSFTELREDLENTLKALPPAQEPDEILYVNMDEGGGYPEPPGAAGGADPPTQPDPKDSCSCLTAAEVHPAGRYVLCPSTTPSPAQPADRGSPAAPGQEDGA
Assay: NIH-3T3-AXL cellular kinase assay (pY-AXL-ELISA)
Settings: NIH-3T3-AXL (clone 22) cells, serum depleted, compounds 1 h; Table Ia

>  <Compound>
COc1cc2c(Oc3ccc(NS(=O)(=O)c4cc(Cl)cc(Cl)c4OC)cc3F)ccnc2cc1OCCCN1CCOCC1 [Example 76]

>  <IC50>
< 500 nM

$$$$
>  <Compound>
COc1cc2c(Oc3ccc(NS(=O)(=O)c4ccc(Cl)s4)cc3F)ccnc2cc1OCCCN1CCCC(C)C1 (stereo not shown) [Example 63]

>  <IC50>
< 500 nM

$$$$
>  <Compound>
COc1cc2c(Oc3ccc(NS(=O)(=O)c4cc(Cl)ccc4Cl)cc3C)ccnc2cc1OCCCN1CCC(C)CC1 [Example 175]

>  <IC50>
500 to 3000 nM

$$$$
>  <Compound>
COc1cc2c(Oc3ccc(NS(=O)(=O)c4c(Cl)csc4Cl)cc3F)ccnc2cc1OCCCN1CCCCC1C (stereo not shown) [Example 146]

>  <IC50>
< 500 nM

$$$$
>  <Compound>
COc1cc2c(Oc3ccc(NS(=O)(=O)c4cc(Cl)cc(Cl)c4)cc3F)ccnc2cc1OCCCN1CCCC(C)C1 (stereo not shown) [Example 53]

>  <IC50>
< 500 nM

$$$$
>  <Compound>
COc1cc2c(Oc3ccc(Cl)c(NS(=O)(=O)c4cc(Cl)ccc4Cl)c3)ccnc2cc1OCCCN1CCC(C)CC1 [Example 197]

>  <IC50>
500 to 3000 nM

$$$$
>  <Compound>
COc1cc2c(Oc3ccc(NS(=O)(=O)c4cccc5ccccc45)cc3F)ccnc2cc1OCCCN1CCCC(C)C1 (stereo not shown) [Example 58]

>  <IC50>
< 500 nM

$$$$

All values here come from patent US9169241B2.
